- tested_target: TNF
- condition_info: ASO; also: test concentration or dose not given here
These antisense oligonucleotides have a phosphorothioate backbone; sugars and methylation of C are not fully specified.
reported_endpoint: remaining target (mRNA or protein) (fraction of control)
Just the number.

Sample records with remaining target (mRNA or protein) (fraction of control):
# sequence_code, tested_target, endpoint_value
rows = [
    ("GCCTGAAGACAGCTTCCCAAC", "TNF", 0.24),
    ("GCAGCCTTGTCCCTTGAAGAG", "TNF", 0.73),
    ("GAAGCCTCCCCGCTCTTTGCC", "TNF", 0.25),
    ("CTGGTCTTTCCACGTCCCATT", "TNF", 0.17),
    ("GCTGGAAGACTCCTCCCAGGT", "TNF", 0.35),
]

Param item = GATCATGCTTTCCGTGCTCAT ; retrieve measured remaining target (mRNA or protein) (fraction of control).
0.94

Could you tell me which remaining target (mRNA or protein) (fraction of control) is on file for TATCTCCCTCGTCTCCCATCT ?
0.27

* * *

Reported remaining target (mRNA or protein) (fraction of control) is given for each of the following sequences.
- tested_target: ETS2
- condition_info: ASO
These antisense oligonucleotides have a phosphorothioate backbone; sugars and methylation of C are not fully specified.
Form: value (number only, do not type unit).

# sequence_code, endpoint_value
rows = [
    ("AGGAGCGGGAGGAGGAGG", 0.87),
    ("GGCCGGCTCAGGGTGGTC", 0.51),
    ("GGAGCTGAGCCGAGACTT", 0.51),
    ("TGTTCCCAGAGAATGTCA", 0.63),
]

GET /values?readout=remaining target (mRNA or protein) (fraction of control)&system=ETS2&item= CCGACGTCTTGTGGATGA
0.45

Please state recorded remaining target (mRNA or protein) (fraction of control) (tested on ETS2) of CTTAAAAGCACTGTGAGT
0.63

API: value(readout= remaining target (mRNA or protein) (fraction of control), system= ETS2, query= CAAGTTGCTGCCTGGGAA )
0.39

State its remaining target (mRNA or protein) (fraction of control) on ETS2: GAGGCAGCCTGGTCAAGA
0.61

Give the reported remaining target (mRNA or protein) (fraction of control) for TGCCAGCTCCAGAAAGCG (system: ETS2).
0.84

Notebook: pull reported remaining target (mRNA or protein) (fraction of control) for ETS2, entry CACAGTTGGCGGAGTCAT
0.45

Provide the documented remaining target (mRNA or protein) (fraction of control) with ETS2 as the system for GCGTGCAGTTCCTCGGGC
0.81

Request - read-out remaining target (mRNA or protein) (fraction of control) | tested on ETS2 | sequence GTGCCAAAACCTAATGTA
0.66

For the record GGACGGCCGAGTGGAGGG , what value of remaining target (mRNA or protein) (fraction of control) is listed for ETS2?
0.81

Item: ATCCGTCTCCAGTCCAGC Test system: ETS2 Read-out: remaining target (mRNA or protein) (fraction of control) Value: ?
0.8

Field: remaining target (mRNA or protein) (fraction of control) (ETS2). Entry: TCGTAATAGTAGCGTAAG
0.85

* * *

Entries and their measured remaining target (mRNA or protein) (fraction of control) follow.
- tested_target: ICAM1
- condition_info: ASO
These antisense oligonucleotides have a phosphorothioate backbone; sugars and methylation of C are not fully specified.
Number only, please.

# sequence_code, endpoint_value
records = [
    ("TGCCCATCAGGGCAGTTTGA", 0.4),
    ("CTATGGAGGGCCACTTC", 0.39),
    ("GGAAACCTCGCGC", 0.91),
    ("CGATGGGCAGTGGGAAAG", 0.95),
    ("GCTTTCCCGGAAACCTCGCGC", 0.48),
]

Param item = AACCTCGCGC ; retrieve measured remaining target (mRNA or protein) (fraction of control).
0.96

Given the entry GACACTCAATAAATAGCTGGT , report its measured remaining target (mRNA or protein) (fraction of control).
0.5

For the sequence CTGAGGTTGC , what remaining target (mRNA or protein) (fraction of control) is on record?
0.95

Could you tell me which remaining target (mRNA or protein) (fraction of control) is on file for CCCGGAAACCTCGCGC ?
0.88

Consider the sequence shown here: GGGCGCGTGATCCTTATAGC What is its recorded remaining target (mRNA or protein) (fraction of control)?
0.8

May I ask what remaining target (mRNA or protein) (fraction of control) has been recorded for CCCCCACCACTTCCCCTCTCA ?
0.07

Given the sequence CCCCGACTCACCTGGGAACAG , what is its reported remaining target (mRNA or protein) (fraction of control)?
0.66

Could you tell me which remaining target (mRNA or protein) (fraction of control) is on file for CCTGTCCCGGGATAGGTTCA ?
0.4

For the sequence GGCAGAAATGTATGTGGGTGG , what remaining target (mRNA or protein) (fraction of control) is on record?
0.68

Recorded remaining target (mRNA or protein) (fraction of control) of GCTTTCCCGGAAA , please.
0.82

Look up remaining target (mRNA or protein) (fraction of control) for this sequence: GAGGCTGAGGTGGGAGGA
0.98

Look up remaining target (mRNA or protein) (fraction of control): TGGGAGCCATAGCGAGGC
0.38
